All values here come from the supplement of paper PMC12669032.

# System: Bacteroides dorei
# assay-method-text: growth AUC relative to DMSO control (median of replicates) (fraction); higher = more growth (less inhibition), active = hit call of the paper
# setup-conditions: 20 µM; 24 h
value-kind: growth AUC
Form: value (number only, do not type unit).

{"compound": "CC(C)CCCCCOC(=O)C(C)Oc1ccc(Cl)cc1Cl (configuration not stated)", "growth AUC": 0.954}
{"compound": "O=C1NC(=O)c2ccccc21", "growth AUC": 1}
{"compound": "CCOCN(C(=O)C(=O)O)c1c(C)cccc1CC", "growth AUC": 1.02}
{"compound": "CN(C)C=O", "growth AUC": 0.936}
{"compound": "Nc1ccc(S(=O)(=O)Nc2nccs2)cc1", "growth AUC": 0.943}

Can you look up growth AUC on Bacteroides dorei for `CCOC(=O)/C(Cl)=C/c1cc(N2C(=O)C3=C(CCCC3)C2=O)ccc1Cl` ?
0.99

Form field: growth AUC recorded for `CCCCCCCC(=O)Oc1c(Br)cc(C#N)cc1Br` with Bacteroides dorei (enter value)
1.04

Could you share what growth AUC was measured for `CN(C)C(=O)SCCCCOc1ccccc1` , tested on Bacteroides dorei?
0.99

Recorded growth AUC for `CC(C)COC(=O)COc1cc(Cl)c(Cl)cc1Cl` with Bacteroides dorei, please?
0.971

For Bacteroides dorei, provide growth AUC of CCOC(=O)C1CC(=O)C(=C(O)C2CC2)C(=O)C1 (configuration not stated) please.
0.979

Give recorded growth AUC with Bacteroides dorei for the following compound: CCCCC(CC)COC(=O)COc1cc(Cl)c(Cl)cc1Cl (configuration not stated)
0.984

What measured growth AUC is associated with `CCOc1nc(F)cc2nc(S(=O)(=O)Nc3c(Cl)cccc3C(=O)OC)nn12` on Bacteroides dorei?
0.988

====

As shown below, each of these molecules has a reported growth AUC value.
# Test system: Fusobacterium nucleatum subsp. animalis
# assay-method-text: growth AUC relative to DMSO control (median of replicates) (fraction); higher = more growth (less inhibition), active = hit call of the paper
# setup-conditions: 20 µM; 24 h
Reply briefly: the number, and no unit.

Worked set:
{"molecule": "CCC([O-])=C1C(=O)CC(C(=O)[O-])CC1=O.[Ca+2] (stereo not drawn)", "growth AUC": 1.11}
{"molecule": "COc1ccc(NC(=O)N(C)C)cc1Cl", "growth AUC": 0.973}
{"molecule": "CCCNCCOc1c(Cl)cc(Cl)cc1Cl", "growth AUC": 0.918}

// lookup growth AUC for Cc1cccc(C)c1N(C(=O)CCl)C1CCOC1=O (stereo not drawn)
1.02

Quick one: growth AUC for `O=c1cc(Cl)[nH]nc1-c1ccccc1` ?
0.995

Need growth AUC, item `O=C(O)COc1cccc(Cl)c1Cl`
1.12

I would be grateful if you could share the reported growth AUC for COC1CCC2(CC1)NC(=O)C(c1cc(C)ccc1C)=C2OC1OC(CO)C(O)C(O)C1O (stereo not drawn) .
1.17

Looking for the measured growth AUC of CC(C)(NC(=O)C(Br)C(C)(C)C)c1ccccc1 (stereo not drawn) , can you help?
0.895

State the recorded growth AUC for this entry: `Oc1ccc2nc(-c3cscn3)[nH]c2c1`
0.975

# get_value(readout='growth AUC', item= COc1cc(OC)nc(Sc2cccc3c2C(=O)OC3C)n1 (stereo not drawn) )
0.965

====

# Tested on: Streptococcus salivarius
# assay-method-text: growth AUC relative to DMSO control (median of replicates) (fraction); higher = more growth (less inhibition), active = hit call of the paper
# setup-conditions: 20 µM; 24 h
This section presents compounds with their documented growth AUC values.
Respond with the number and no other words.

Some solved cases for reference:
{"compound": "CNC(=O)/C(=N/OC)c1ccccc1CO/N=C(C)/C(=N/OC)C(/C)=N/OC", "observed": 1.01}
{"compound": "Br[C@@H]1CC[C@@H](Br)[C@@H](Br)CC[C@H](Br)[C@H](Br)CC[C@H]1Br", "observed": 0.898}

For the compound `COC(=O)c1ccc(C(=O)OC)cc1` , what growth AUC is on record?
0.951

Entry `Nc1ccc(S(=O)(=O)Nc2cnc3ccccc3n2)cc1` has what growth AUC?
1.03

Please look up its growth AUC: `COc1nc(NC(=O)NS(=O)(=O)c2ccccc2C(F)(F)F)nc(C(F)(F)F)n1`
1.02

Given `Cc1c(Br)c2ccc(F)cc2n1S(=O)(=O)c1ncn(S(=O)(=O)N(C)C)n1` , state its recorded growth AUC.
1.06

Given the entry CCOCCOC(=O)C(C)Oc1ccc(Oc2ncc(C(F)(F)F)cc2Cl)cc1 (stereo unspecified) , report its measured growth AUC.
0.959

Value lookup for growth AUC; key = `COC(=O)c1ccccc1S(=O)(=O)NC(=O)Nc1nc(OC(F)F)cc(OC(F)F)n1`
0.994

Name the reported growth AUC value associated with the compound COCC(=O)N(c1c(C)cccc1C)C(C)C(=O)O (stereo unspecified)
1.01

I have this compound here, `CCc1cc(C(=O)O)cc(CC)c1C1C(=O)N2CCOCCN2C1=O` , and I need its recorded growth AUC.
1

What value of growth AUC has been reported for the following compound? `CCOC(=O)NCCOc1ccc(Oc2ccccc2)cc1`
0.976

Reported growth AUC, compound `CN(C)C(N)=O` : ____
1.02

Param item = CCC([O-])=C1C(=O)CC(C(=O)[O-])CC1=O.[Ca+2] (stereo unspecified) ; retrieve measured growth AUC.
0.917

Dear colleague, I am looking for the recorded growth AUC of the following compound: COC1CCC2(CC1)NC(=O)C(c1cc(C)ccc1C)=C2O (stereo unspecified)
1.03

So what's the measured growth AUC for this one? C/C=C/C(=O)Oc1c(C(C)CCCCCC)cc([N+](=O)[O-])cc1[N+](=O)[O-] (mixture of isomers)
0.301

Param item = `CCOc1nc(F)cc2nc(S(=O)(=O)Nc3c(Cl)cccc3C(=O)OC)nn12` ; retrieve measured growth AUC.
1.01

Sample `O=c1cc(Cl)[nH]nc1-c1ccccc1` — what was its growth AUC?
1.03

Reported growth AUC for `COc1ccc(NC(=O)N(C)C)cc1Cl` : what is it?
0.927

Please give the measured growth AUC for this compound: Clc1ccc(C(c2ccccc2Cl)C(Cl)Cl)cc1 (stereo unspecified)
0.966

I'd like to know its growth AUC. The compound in question is `O=C(NC(=O)c1c(F)cccc1F)Nc1cc(C(F)(F)F)cc(C(F)(F)F)c1Cl`
0.922

Entry `COC(=O)Cc1cccc2ccccc12` has what growth AUC?
1.01

====

Overview of recorded growth AUC for various compounds
# Tested on: Collinsella aerofaciens
# assay-method-text: growth AUC relative to DMSO control (median of replicates) (fraction); higher = more growth (less inhibition), active = hit call of the paper
# setup-conditions: 20 µM; 24 h
Please give only the number in your answer, with no unit.

Observe how each entry below is paired with its result.
{"compound": "Cc1cc(C)c(C2=C(O)C3(CCCC3)OC2=O)c(C)c1", "growth AUC": 1.04}
{"compound": "CCOC(=O)Cc1[nH]nc2ccc(Cl)cc12", "growth AUC": 0.969}
{"compound": "CCOC(=O)C1=NOC(c2ccccc2)(c2ccccc2)C1", "growth AUC": 0.993}
{"compound": "N#Cc1ccccc1NC(=O)c1snc(Cl)c1Cl", "growth AUC": 1.05}
{"compound": "CC(C)c1cc(Oc2ccccc2)cc(C(C)C)c1NC(=S)NC(C)(C)C", "growth AUC": 1.03}
{"compound": "CCOc1ccc(C2(C(=O)OC(C#N)c3cccc(Oc4ccccc4)c3)CC2(Cl)Cl)cc1 (stereo not given)", "growth AUC": 0.982}

# query: growth AUC | item O=S(Cc1ccc(Cl)cc1)c1ccc(Cl)cc1 (stereo not given) | system: Collinsella aerofaciens
0.972

Find growth AUC (Collinsella aerofaciens) for the entry `CCCN(CCC)C(=O)SCC`
0.992

GET /values?readout=growth AUC&system=Collinsella aerofaciens&item= `CCNc1nc(N)[nH]c(=O)n1`
1.04

Enter reported growth AUC observed with Collinsella aerofaciens for COc1cc(OC)nc(Sc2cccc3c2C(=O)OC3C)n1 (stereo not given)
1.03

Can you look up growth AUC on Collinsella aerofaciens for `Cc1cc(N(C)C)nc(Cl)n1` ?
0.977

What measured growth AUC is associated with `NC(=O)Cc1cccc2ccccc12` on Collinsella aerofaciens?
0.981

What measured growth AUC is associated with `O=C(O)CCCc1c[nH]c2ccccc12` on Collinsella aerofaciens?
0.954

So what growth AUC did `c1ccc(Nc2ccccc2)cc1` get with Collinsella aerofaciens?
1.01

Find the measured growth AUC: item `O=C(O)COc1cc(N2C(=O)C3=C(CCCC3)C2=O)c(F)cc1Cl` , target or system Collinsella aerofaciens.
0.967

Observed growth AUC on Collinsella aerofaciens for `CC(C)N(C(=O)CS(=O)(=O)[O-])c1ccc(F)cc1.[Na+]` , please.
0.957

Give the reported growth AUC for `Nc1ccc(O)cc1` (system: Collinsella aerofaciens).
1.01

// map `COC(=O)c1ccc(I)cc1S(=O)(=O)[N-]C(=O)Nc1nc(C)nc(OC)n1.[Na+]` to recorded growth AUC (system: Collinsella aerofaciens)
0.977

Could you share what growth AUC was measured for `CCCN(CCOc1c(Cl)cc(Cl)cc1Cl)C(=O)NC=O` , tested on Collinsella aerofaciens?
0.995

Write down the reported growth AUC of `CCCCCCCCSCCO` , test system: Collinsella aerofaciens.
0.949

Param readout = growth AUC; param system = Collinsella aerofaciens; param query = `CN(C)C(=O)Nc1cc(C(C)(C)C)on1` ; response: value
0.989

Field: growth AUC (Collinsella aerofaciens). Entry: `COc1nc(C)nc(NC(=O)NS(=O)(=O)c2ccccc2OCCCl)n1`
0.993

Record `C#CCOc1cc(-n2nc(C(C)(C)C)oc2=O)c(Cl)cc1Cl` : what is its growth AUC with Collinsella aerofaciens?
0.917

Write down the reported growth AUC of `O=C(O)c1cccc2nnsc12` , test system: Collinsella aerofaciens.
0.977

Missing value: growth AUC, Collinsella aerofaciens, entry `c1ccc2c(c1)Cc1ccccc1-2` . Fill in?
1.01
